- Tested on: Rattus norvegicus
- condition parameters: subchronic; duration: 90 days; oral; diet; M/F; no effects
reported metric: NOAEL (mg/kg-day)
Give bare numbers, in mg/kg-day.

Use the examples below as a reference point.
CC(=O)c1ccc2ccccc2c1 [2'-Acetonaphthone] :: 33
CCOC(=O)CCCSC(C)=O [Ethyl 4-(acetylthio)butyrate] :: 6.63
CC(C=O)=Cc1ccccc1 [2-Methylcinnamic aldehyde] :: 220

Here is the next item to consider.
Query (molecule): CC(C)=CCC/C(C)=C/CNC(=O)C1CC1 [N-3,7-Dimethyl-2,6-octadienyl cyclopropylcarboxamide, (2E)-] ; field requested: NOAEL
73.3
